These data points were gathered from patent US9029553B2.

The following molecules each carry a recorded GI50 for HT29.
Hi, when you answer, please include the unit after the number. Thanks!

Consider the reported GI50 for these molecules:
COc1ccc2nc(NC(=O)c3cccnc3Nc3cc(OC)c(OC)c(OC)c3)sc2c1 : 17.7 µM
O=C(Nc1nc2ccc(F)cc2s1)c1cccnc1Nc1ccc(Cl)cc1 : 2.86 µM
COc1cc(Nc2ncccc2C(=O)Nc2nc3ccc(F)cc3s2)cc(OC)c1OC : 5.15 µM

Please turn your attention to the following entry.
GI50 in this record for `O=C(Nc1nc2ccc(F)cc2s1)c1cccnc1Nc1ccc(Cl)cc1Cl` : 2.98 µM

----------
Entries and their measured IC50 follow.
Tested on: normal monkey kidney CV-1 cells
measurement description: MTT cytotoxicity in normal cells
Format: cell-based
experimental context: Primates

Consider the reported IC50 for these compounds:
COc1ccc(Nc2ncccc2C(=O)Nc2nc3ccc([N+](=O)[O-])cc3s2)cc1 : 10 µM
O=C(Nc1nc2ccc([N+](=O)[O-])cc2s1)c1cccnc1Nc1ccc(F)cc1 : 15 µM
O=C(Nc1nc2ccc([N+](=O)[O-])cc2s1)c1cccnc1Nc1ccc(Cl)cc1Cl : 0.8 µM
O=C(Nc1nc2ccc([N+](=O)[O-])cc2s1)c1cccnc1Nc1ccccc1 : 70 µM

Please turn your attention to the following entry.
Given the compound `O=C(Nc1nc2ccc([N+](=O)[O-])cc2s1)c1cccnc1Nc1cc(F)c(F)c(F)c1` and test system normal monkey kidney CV-1 cells, the measured IC50 is > 100 µM

----------
Tested on: HOP-92
Entries and their measured GI50 follow.
Please give a number only; it is taken to be in µM.

Consider the reported GI50 for these compounds:
COc1ccc2nc(NC(=O)c3cccnc3Nc3cc(OC)c(OC)c(OC)c3)sc2c1 : 2.24
COc1cc(Nc2ncccc2C(=O)Nc2nc3ccc(F)cc3s2)cc(OC)c1OC : 1.48
O=C(Nc1nc2ccc(F)cc2s1)c1cccnc1Nc1ccc(Cl)cc1 : 1.69

Please turn your attention to the following entry.
Given the compound `O=C(Nc1nc2ccc(F)cc2s1)c1cccnc1Nc1ccc(Cl)cc1Cl` and test system HOP-92, the measured GI50 is 1.48

----------
The following compounds each carry a recorded GI50 for EKVX.
Please give a number only; it is taken to be in nM.

O=C(Nc1nc2ccc(F)cc2s1)c1cccnc1Nc1ccc(Cl)cc1 : 1940
O=C(Nc1nc2ccc(F)cc2s1)c1cccnc1Nc1ccc(Cl)cc1Cl : 2070
COc1cc(Nc2ncccc2C(=O)Nc2nc3ccc(F)cc3s2)cc(OC)c1OC : 2700

Given the compound `COc1ccc2nc(NC(=O)c3cccnc3Nc3cc(OC)c(OC)c(OC)c3)sc2c1` and test system EKVX, the measured GI50 is 11500

----------
Entries and their measured GI50 follow.
Tested on: SK-MEL-5
Please give a number only; it is taken to be in nM.

Consider the reported GI50 for these molecules:
COc1cc(Nc2ncccc2C(=O)Nc2nc3ccc(F)cc3s2)cc(OC)c1OC [Compound 11] : 1630
COc1ccc2nc(NC(=O)c3cccnc3Nc3cc(OC)c(OC)c(OC)c3)sc2c1 [Compound 12] : 11300

GI50 in this record for O=C(Nc1nc2ccc(F)cc2s1)c1cccnc1Nc1ccc(Cl)cc1 [Compound 9] : 1110

GI50 in this record for O=C(Nc1nc2ccc(F)cc2s1)c1cccnc1Nc1ccc(Cl)cc1Cl [Compound 10] : 1710
